Molecular target: T1, Mouse ST2 (mouse, UniProt P14719 27-332, limits assumed)
T1 construct: also called mouse ST2 protein
T1 sequence (looked up): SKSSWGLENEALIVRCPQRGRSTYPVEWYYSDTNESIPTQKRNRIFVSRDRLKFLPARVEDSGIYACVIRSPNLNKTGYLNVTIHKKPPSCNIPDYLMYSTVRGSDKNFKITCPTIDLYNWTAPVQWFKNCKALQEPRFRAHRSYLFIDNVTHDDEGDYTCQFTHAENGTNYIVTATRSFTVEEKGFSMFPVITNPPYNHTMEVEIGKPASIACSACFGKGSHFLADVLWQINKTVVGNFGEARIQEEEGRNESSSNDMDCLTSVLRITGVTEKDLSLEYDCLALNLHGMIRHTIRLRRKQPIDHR
Experiment: SPR (Carterra), antibody immobilized, ST2 analyte, 1:1
pKd: −log10 of the molar value.
Tick yes if pKd is 6 or greater. Tick no if pKd is less than 6.

INPUT: Is reported pKd greater than or equal to 6 here: Human ST2 IgG1 Antibody 86 (antibody, V domains shown, IgG1, kappa; also called ST2 Antibody 86) VH: QVQLVQSGAEVKKPGSSVKVSCKASGGTFSNYAISWVRQAPGQGLEWMGGIIPIFGTANYAQKFQGRVTITADESTSTAYMELSSLRSEDTAVYYCAKDLGGWFNLFDPWGQGTLVTVSS VL: EIVMTQSPATLSVSPGERATLSCRASQGVSSYLAWYQQKPGQAPRLLIYGASTRATGIPARFSGSGSGTEFTLTISSLQSEDFAVYYCQQYRSFPLTFGGGTKVEIKR
OUTPUT: yes

INPUT: Is reported pKd greater than or equal to 6 here: Human ST2 IgG1 Antibody 35 (antibody, V domains shown, IgG1, kappa; also called ST2 Antibody 35) VH: QVQLVQSGAEVKKPGASVKVSCKASAYTFTSYGISWLRQAPGQGLEWMGWINPNSGNTGYAHKFQGRVTMTRDTSTSTVYMELSSLRSEDTAVYYCARGGSGWPTWGQGTLVTVSS VL: DIQMTQSPSSLSASVGDRVTITCQASQDISNYLNWYQQKPGKAPKLLIYGASSLQSGVPSRFSGSGSGTDFTLTISSLQPEDFATYYCQQANTFPFTFGPGTKVDIKR
OUTPUT: yes

INPUT: Is reported pKd greater than or equal to 6 here: Human ST2 IgG1 Antibody 30 (antibody, V domains shown, IgG1, kappa; also called ST2 Antibody 30) VH: QVQLVQSGAEVKKPGSSVKVSCKASGYTFTTYGITWVRQAPGQGLEWMGGIIPIFGTANYAQKFQGRVTITADESTSTAYMELSSLRSEDTAVYYCAKLSGSSGSWDYYYYYGMDVWGQGTLVTVSS VL: DIVMTQSPLSLPVTPGEPASISCRSSQSLLHSNGYNYLDWYLQKPGQSPQLLIYAASNLQSGVPDRFSGSGSGTDFTLKISRVEAEDVGVYYCMQALQTPITFGQSTRLEIKR
OUTPUT: no
